B1: POU domain, class 3, transcription factor 4, residues 280 to 335; numbered along this chain, P49335 (parent)
chain: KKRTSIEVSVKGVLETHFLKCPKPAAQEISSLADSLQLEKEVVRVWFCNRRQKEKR

- Variants of: B1
- Experiment Summary: abundance fitness (aPCA) (normalised: wild type 0, dead -1); higher = more abundant; growth selection in yeast, the domain comes from the species named
- Experimental Conditions: Homo sapiens
Decide by abundance fitness: equal to or exceeding -0.2 means t, less means f.

# example entries with known answers
C48Q | t
K55R | t
R51W | f
V13W | f
V8M | t

Prompt line: Is abundance fitness at least -0.2? Consider S30L
Response line: f

Prompt line: S30M ?
Response line: f

Prompt line: Repeat for the following variant: K53Y
Response line: f

Prompt line: Same read-out for K40T ?
Response line: t

Prompt line: How about this variant: T16M
Response line: f

Prompt line: What do you get for V42I ?
Response line: f

Where do the numbers come from? From the Human Domainome abundance scans (Beltran et al. 2025).
